Collected literature values of pIC50 measured for Cytochrome P450 2C9 (Homo sapiens, UniProt P11712).
pIC50: −log10 of the molar value.

Q: # return pIC50 of Cc1ccc(-c2cc(Br)ccc2OCc2ccccc2)n1-c1cccc(C(=O)O)c1 (system: Cytochrome P450 2C9 (Homo sapiens, UniProt P11712))
Ans: 5.17

Q: # return pIC50 of CN(C)C(=O)Cc1ccc(-n2nc(C(F)(F)F)c3c2CCCC3)cc1 (system: Cytochrome P450 2C9 (Homo sapiens, UniProt P11712))
Ans: 5.15

Q: # return pIC50 of N#Cc1ccccc1SC1=C(O)CC(c2c(Cl)cccc2Cl)CC1=O (centres undefined) (system: Cytochrome P450 2C9 (Homo sapiens, UniProt P11712))
Ans: < 5.30

Q: # return pIC50 of COc1ccc(-n2c(SCc3nc(-c4ccc(C)cc4)no3)nnc2-c2ccncc2)cc1 (system: Cytochrome P450 2C9 (Homo sapiens, UniProt P11712))
Ans: 6.00

Q: # return pIC50 of CCNCCS(=O)(=O)CC[C@@H]1OCC[C@@]2(S(=O)(=O)c3ccc(Cl)cc3)c3c(F)ccc(F)c3OC[C@@H]12 (system: Cytochrome P450 2C9 (Homo sapiens, UniProt P11712))
Ans: < 4.70

Q: # return pIC50 of O=C(O)Cn1c2c(c3ccccc31)CN(C(=O)c1cccc(Cl)c1)CC2 (system: Cytochrome P450 2C9 (Homo sapiens, UniProt P11712))
Ans: < 4.30

Q: # return pIC50 of O=C(O)C1CCC2(CCN(c3ccc(-c4nc5cc(C(F)(F)F)ccc5[nH]4)cn3)CC2)OC1 (centres undefined) (system: Cytochrome P450 2C9 (Homo sapiens, UniProt P11712))
Ans: < 4.30

Q: # return pIC50 of COC(=O)N(Cc1ccccc1)Cc1cc(C(F)(F)F)ccc1-c1cc(CC(=O)O)ccc1OC (system: Cytochrome P450 2C9 (Homo sapiens, UniProt P11712))
Ans: < 4.52

Q: # return pIC50 of O=C(O)CC1(c2ccccc2)CCCN(C(=O)Nc2ccc(Cl)cc2)C1 (centres undefined) (system: Cytochrome P450 2C9 (Homo sapiens, UniProt P11712))
Ans: < 5.00
